The values you see were collected from the supplement of paper PMC10567573.

Listed next: entries and their corresponding protein stability index.
B1: FUT8 (parent)
chain: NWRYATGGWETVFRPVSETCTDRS

Variants of: B1
PROCEDURE TEXT: protein stability index of a GFP-peptide fusion (GPS, HEK-293T) (PSI 1-6); higher = more stable;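 further: lentivirally expressed fusions sorted by FACS into six bins by GFP to DsRed ratio, PSI derived from sequencing read proportions per bin multiplied by bin number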
EXPERIMENTAL CONDITIONS: c terminus: a fixed tail appended
Write the value as a bare number.

See these solved cases before continuing.
[[record]]
mutation = "P15Y"
measurement_name = "protein stability index"
measured_value = 1.27

[[record]]
mutation = "V12G"
measurement_name = "protein stability index"
measured_value = 1.09

[[record]]
mutation = "A5P"
measurement_name = "protein stability index"
measured_value = 1.48

[[record]]
mutation = "T19S"
measurement_name = "protein stability index"
measured_value = 2.5


// switching to the query variant
INPUT: Which protein stability index value belongs to F13R ?
OUTPUT: 2.69
